Test system: Thromboxane-A synthase (Bos taurus)
test details: Inhibitory effect against thromboxane A2 synthase from bovine platelets at 10 uM concentration
Here the recorded inhibition is given for each entry.
Output spec: scalar in %, unitless text.

1. O=C(O)c1ccc2c(c1)C(SCCNS(=O)(=O)c1ccccc1)c1ccccc1CC2 (stereo not given)	68
2. O=C(O)c1cccc(C(SCCNS(=O)(=O)c2ccccc2)c2ccccc2)c1 (stereo not given)	19
3. O=C(NCCSC1c2ccccc2COc2ccc(C(=O)O)cc21)OCc1ccccc1 (stereo not given)	56
4. O=C(NCCSC1c2ccccc2COc2ccc(C(=O)O)cc21)NCc1ccccc1 (stereo not given)	41
5. O=C(O)c1ccc2c(c1)C(SCCNC(=O)c1ccccc1)c1ccccc1CO2 (stereo not given)	63

Record Cc1ccc(S(=O)(=O)NCCSC2c3ccccc3COc3ccc(C(=O)O)cc32)cc1 (stereo not given) , field inhibition: 77

// O=C(O)c1ccc2c(c1)C(SCCNS(=O)(=O)c1cccc3cccnc13)c1ccccc1CO2 (stereo not given) : inhibition value = 63

Please fill in: inhibition reported for Cc1ccc2c(c1)C(SCCNS(=O)(=O)c1ccccc1)c1ccccc1CO2 (stereo not given) = -10

Lab book: inhibition of COc1ccc(OC)c(S(=O)(=O)NCCSC2c3ccccc3COc3ccc(C(=O)O)cc32)c1 (stereo not given) noted as 62

Lab book: inhibition of O=C(O)c1ccc2c(c1)C(SCCNC(=O)C1CCCCC1)c1ccccc1CO2 (stereo not given) noted as 19

====

The following compounds are shown together with reported inhibition values.
target desc: Thromboxane-A synthase (Homo sapiens) (UniProt P24557)
Sequence (whole entry): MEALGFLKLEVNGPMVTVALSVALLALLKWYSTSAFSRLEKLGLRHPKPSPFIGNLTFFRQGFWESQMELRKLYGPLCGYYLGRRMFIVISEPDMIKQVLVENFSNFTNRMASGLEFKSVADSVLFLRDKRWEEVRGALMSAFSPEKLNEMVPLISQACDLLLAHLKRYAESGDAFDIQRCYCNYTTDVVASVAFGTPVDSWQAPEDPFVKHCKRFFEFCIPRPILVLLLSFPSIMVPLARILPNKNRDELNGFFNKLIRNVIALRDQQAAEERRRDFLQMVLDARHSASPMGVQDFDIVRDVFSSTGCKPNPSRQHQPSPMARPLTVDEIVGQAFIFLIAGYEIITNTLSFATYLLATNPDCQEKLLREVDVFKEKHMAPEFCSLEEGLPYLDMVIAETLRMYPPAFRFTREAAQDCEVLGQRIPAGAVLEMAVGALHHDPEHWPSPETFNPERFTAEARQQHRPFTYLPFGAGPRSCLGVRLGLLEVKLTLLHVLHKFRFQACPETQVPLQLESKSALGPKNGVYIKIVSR
test details: Inhibitory activity against thromboxane A2 synthase obtained from bovine platelet microsomes at 10 uM
setup conditions: Bos taurus, target entry is the homologue from another species
Numeric answer only, unit % assumed.

Reported inhibition of O=C(O)c1ccc2c(c1)C(SCCNS(=O)(=O)c1ccccc1)c1ccccc1C=C2 (stereo not drawn) : 74

The compound listed as O=C(O)c1ccc2c(c1)C(SCCNS(=O)(=O)c1ccc([N+](=O)[O-])cc1)c1ccccc1CO2 (stereo not drawn) shows inhibition equal to 41

Input O=C(NCCSC1c2ccccc2COc2ccc(C(=O)O)cc21)OCc1ccccc1 (stereo not drawn) . Output inhibition: 56

====

target desc: Thromboxane A2 receptor (Homo sapiens)
test details: Binding affinity for thromboxane A2 receptor by measuring ability to displace [3H]U-46619 from guinea pig platelets at 1 uM
setup conditions: Cavia porcellus, target entry is the homologue from another species
endpoint name: inhibition (%)
Value expressed in %; do not type the unit.

// worked examples, inhibition included
1. O=C(O)c1ccc2c(c1)C(SCCNS(=O)(=O)c1ccccc1)c1ccccc1CS2 (stereo not drawn)	99
2. COc1ccc(S(=O)(=O)NCCSC2c3ccccc3COc3ccc(C(=O)O)cc32)cc1 (stereo not drawn)	93
3. O=C(O)c1ccc2c(c1)C(SCCNC(=O)C1CCCCC1)c1ccccc1CO2 (stereo not drawn)	66
4. O=C(O)Cc1ccc2c(c1)C(SCCNS(=O)(=O)c1ccccc1)c1ccccc1CO2 (stereo not drawn)	84
5. COc1cccc(OC)c1C(=O)NCCSC1c2ccccc2COc2ccc(C(=O)O)cc21 (stereo not drawn)	72

Entry under test: O=C(O)c1ccc2c(c1)C(SCCNC(=O)c1ccccc1O)c1ccccc1CO2 (stereo not drawn) . Its inhibition was 99

Recorded result, COc1ccccc1C(=O)NCCSC1c2ccccc2COc2ccc(C(=O)O)cc21 (stereo not drawn) , inhibition: 97

Recorded result, Cc1ccsc1C(=O)NCCSC1c2ccccc2COc2ccc(C(=O)O)cc21 (stereo not drawn) , inhibition: 94

====

target desc: Thromboxane-A synthase (Homo sapiens)
test details: Inhibitory activity against thromboxane A2 synthase obtained from bovine platelet microsomes at 10 uM
setup conditions: Bos taurus, target entry is the homologue from another species
Listed next: entries and their corresponding inhibition.
Write the answer as a number in %, unit excluded.

Sample answers from the record:
1) O=C(O)c1ccc2c(c1)C(SCCNC(=O)c1ccccc1)c1ccccc1CO2 (centres undefined)	63
2) O=C(O)c1ccc2c(c1)OCc1ccccc1C2SCCNS(=O)(=O)c1ccccc1 (centres undefined)	96
3) COc1ccc(OC)c(S(=O)(=O)NCCSC2c3ccccc3COc3ccc(C(=O)O)cc32)c1 (centres undefined)	62
4) O=C(O)c1ccc2c(c1)C(SCCNS(=O)(=O)c1cccc3cccnc13)c1ccccc1CO2 (centres undefined)	63
5) COc1cc(C(=O)NCCSC2c3ccccc3COc3ccc(C(=O)O)cc32)cc(OC)c1OC (centres undefined)	92
6) Cc1ccc(S(=O)(=O)NCCSC2c3ccccc3COc3ccc(C(=O)O)cc32)cc1 (centres undefined)	77
7) O=C(O)c1ccc2c(c1)C(SCCNS(=O)(=O)c1ccc3ccccc3c1)c1ccccc1CO2 (centres undefined)	38
8) O=C(O)c1ccc2c(c1)C(SCCNS(=O)(=O)c1ccccc1[N+](=O)[O-])c1ccccc1CO2 (centres undefined)	72

Okay, now this molecule:
Measured inhibition, O=C(O)c1ccc2c(c1)C(SCCNS(=O)(=O)c1cccc([N+](=O)[O-])c1)c1ccccc1CO2 (centres undefined) : 54

====

target desc: Thromboxane A2 receptor (Homo sapiens)
test details: Inhibitory effect against binding thromboxane A2 receptor on guinea pig platelets using [3H]U-46619 as radioligand at 1 uM concentration
setup conditions: Cavia porcellus, target entry is the homologue from another species
# inhibition values compiled below

COc1ccc(C(=O)NCCSC2c3ccccc3COc3ccc(C(=O)O)cc32)c(OC)c1OC (stereo not drawn) has a reported inhibition of 97%

Entry CN(CCSC1c2ccccc2COc2ccc(C(=O)O)cc21)S(=O)(=O)c1ccccc1 (stereo not drawn) , inhibition reported as 92%

Form field inhibition, entry O=C(NCCSC1c2ccccc2COc2ccc(C(=O)O)cc21)Nc1ccccc1 (stereo not drawn) : 98%

inhibition reading for O=C(O)c1ccc2c(c1)C(SCCNS(=O)(=O)c1ccc3ccccc3c1)c1ccccc1CO2 (stereo not drawn) : 95%

// inhibition value for O=C(O)c1ccc2c(c1)OCc1ccccc1C2SCCNS(=O)(=O)c1ccccc1 (stereo not drawn) : 36%

Reported inhibition of O=C(O)c1ccc2c(c1)C(SCCNC(=O)c1ccccc1)c1ccccc1CO2 (stereo not drawn) : 92%

// O=C(NCCSC1c2ccccc2COc2ccc(C(=O)O)cc21)OCc1ccccc1 (stereo not drawn) : inhibition value = 96%

Cc1ccsc1C(=O)NCCSC1c2ccccc2COc2ccc(C(=O)O)cc21 (stereo not drawn) has a reported inhibition of 94%

====

Tested on: Thromboxane-A synthase (Bos taurus)
test details: Inhibitory effect against thromboxane A2 synthase from bovine platelets at 10 uM concentration
The entries below are paired with their reported inhibition.
Answer with a number only, understood to be in %.

Known results for molecules:
1. O=C(O)c1ccc2c(c1)C(SCCNS(=O)(=O)c1ccccc1)c1cc(Br)ccc1CO2 (stereo not given)	6
2. O=C(O)c1ccc2c(c1)C(SCCNS(=O)(=O)c1ccc(C(F)(F)F)cc1)c1ccccc1CO2 (stereo not given)	-9
3. O=C(O)c1ccc2c(c1)C(SCCNS(=O)(=O)c1ccc(Cl)cc1)c1ccccc1CO2 (stereo not given)	79
4. COc1ccc(S(=O)(=O)NCCSC2c3ccccc3COc3ccc(C(=O)O)cc32)cc1OC (stereo not given)	70
5. O=C(O)c1ccc2c(c1)OCc1ccccc1C2SCCNS(=O)(=O)c1ccccc1 (stereo not given)	96
6. COc1ccc(S(=O)(=O)NCCSC2c3ccccc3COc3ccc(C(=O)O)cc32)cc1 (stereo not given)	75

In plain terms, O=C(O)c1ccc2c(c1)C(SCCNS(=O)(=O)c1ccc(F)cc1)c1ccccc1CO2 (stereo not given) has a documented inhibition of 33

Memo: CCCCCC(=O)NCCSC1c2ccccc2COc2ccc(C(=O)O)cc21 (stereo not given) , reported inhibition: 4

Record O=C(O)c1ccc2c(c1)C(SCCNS(=O)(=O)c1ccc3ccccc3c1)c1ccccc1CO2 (stereo not given) . Reported inhibition: 38

get_value(item= O=C(O)c1ccc2c(c1)C(SCCNS(=O)(=O)c1cccs1)c1ccccc1CO2 (stereo not given) , readout=inhibition) returns 33

Per the record, COc1cc(C(=O)NCCSC2c3ccccc3COc3ccc(C(=O)O)cc32)cc(OC)c1OC (stereo not given) has inhibition of 92

Query O=C(O)c1ccc2c(c1)C(SCCNC(=O)c1ccccc1O)c1ccccc1CO2 (stereo not given) yields inhibition of 53

// recorded inhibition for O=C(O)c1ccc2c(c1)C(SCCNS(=O)(=O)c1ccccc1)c1ccccc1OC2 (stereo not given) : 53

Reported inhibition of O=C(O)c1ccc2c(c1)C(SCCNS(=O)(=O)c1cccc([N+](=O)[O-])c1)c1ccccc1CO2 (stereo not given) : 54

Given item O=C(NCCSC1c2ccccc2COc2ccc(C(=O)O)cc21)Nc1ccccc1 (stereo not given) , the value recorded as its inhibition is 58

Lab book: inhibition of O=C(O)c1ccc2c(c1)C(SCCNS(=O)(=O)c1ccccc1[N+](=O)[O-])c1ccccc1CO2 (stereo not given) noted as 79

get_value(item= Cc1ccsc1C(=O)NCCSC1c2ccccc2COc2ccc(C(=O)O)cc21 (stereo not given) , readout=inhibition) returns 79

Entry under test: O=C(O)c1ccc2c(c1)C(SCC/N=C(\S)NCc1ccccc1)c1ccccc1CO2 (stereo not given) . Its inhibition was 92

Lab book: inhibition of O=C(O)c1ccc2c(c1)C(SCCNS(=O)(=O)c1ccc([N+](=O)[O-])cc1)c1ccccc1CO2 (stereo not given) noted as 41

Measured inhibition, O=C(O)c1ccc2c(c1)C(SCCNS(=O)(=O)c1ccccc1)c1ccccc1C=C2 (stereo not given) : 74
